# SYSTEM NAME: hVEGF-A (human, UniProt P15692-4 27-191, limits assumed)
# MEASUREMENT PROTOCOL: cell-based or functional assay
Outcome: Criterion met for Cellular IC50 of at least 1 nM; Criterion not met for anything lower.

Please tell me: is the binder GCNIMLPFWGCGRDFECFINCICQYYQSCG (designed binder) [VEGF_CKP9.54.90.44] at or over 1 nM in terms of Cellular IC50?
Criterion met

Hi team, for GCNIMLPFWGCGRDFECMNQCICQYYQSCG (designed binder) [VEGF_CKP9.54.90.13] , is the recorded Cellular IC50 at or above 1 nM?
Criterion not met

Is the recorded value of Cellular IC50 equal to or greater than 1 nM for this binder? GCDVMQPYWGCGPDIDCLSNCICHWYNSCG (designed binder) [VEGF_CKP9.63.12.12]
Criterion not met

Could you tell me if the measured Cellular IC50 of CNIMLPYWGCGRDFECLAGCVCQYYQSC (designed binder) [9.54.90.F7Y.A2G] reaches 1 nM or more?
Criterion met

Say whether GCNIMLPFWGCGRDFECMQTCICQYYQSCG (designed binder) [VEGF_CKP9.54.90.25] shows Cellular IC50 of 1 nM or more.
Criterion met

Continuing:
State whether the measured Cellular IC50 reaches 1 nM, counting equality as reaching it, for GCNIMLPYWGCGRDFECMNQCICQYYQSCG (designed binder) [VEGF_CKP9.54.90.13.F8Y]
Criterion met
